# Tested on: A549-TUBA1B-RELA
# MEASUREMENT PROTOCOL: phenotypically active (imaging signature differs from DMSO and reproducible) at any of 0.3-9 uM (binary (1 = active, 0 = inactive)); higher = active
# EXPERIMENTAL SETUP: treatment time: 24 h
Could you please pick one outcome from this set? 1 = active, -1 = inactive

For COc1ccc(-c2cc(=O)c3c(O)cc(O)cc3o2)cc1O [Diosmetin] , what call appears in the results of this test?
1

For O=C(CCCCCN1C(=O)c2cccc3cccc(c23)C1=O)NO [Scriptaid] , what call appears in the results of this test?
1

For COc1ccc(C2=N[C@H](c3ccc(Cl)cc3)[C@H](c3ccc(Cl)cc3)N2C(=O)N2CCNC(=O)C2)c(OC(C)C)c1 [Nutlin-3] , what call appears in the results of this test?
-1

For Nc1nc(Cl)nc2c1ncn2[C@@H]1O[C@H](CO)[C@@H](O)[C@@H]1F [clofarabine] , what call appears in the results of this test?
1

For CN(C)CCOC(c1ccc(Cl)cc1)c1ccccn1 (stereo not given) [carbinoxamine] , what call appears in the results of this test?
-1

###

# Tested on: WPMY1-GM130-SQSTM1
# MEASUREMENT PROTOCOL: phenotypically active (imaging signature differs from DMSO and reproducible) at any of 0.3-9 uM (binary (1 = active, 0 = inactive)); higher = active
# EXPERIMENTAL SETUP: treatment time: 24 h
Counter-ions that a name gives are not always drawn.
OUTCOME MEASURE: phenotypically active

Observed phenotypically active on WPMY1-GM130-SQSTM1 for CC1(C)O[C@@H]2C[C@H]3[C@@H]4C[C@H](F)C5=CC(=O)CC[C@]5(C)[C@H]4[C@@H](O)C[C@]3(C)[C@]2(C(=O)CO)O1 [flurandrenolide] , please.
0 (inactive)

Observed phenotypically active on WPMY1-GM130-SQSTM1 for `CCN(c1ccccc1)c1cc(NC)[n+](C)c(C)n1` , please.
0 (inactive)

Observed phenotypically active on WPMY1-GM130-SQSTM1 for CN(C)C(=O)C(CCN1CCC(O)(c2ccc(Cl)cc2)CC1)(c1ccccc1)c1ccccc1 [loperamide] , please.
1 (active)

Observed phenotypically active on WPMY1-GM130-SQSTM1 for CCCCCCCN(CC)CCCC(O)c1ccc(NS(C)(=O)=O)cc1 (configuration not stated) [ibutilide] , please.
1 (active)

Observed phenotypically active on WPMY1-GM130-SQSTM1 for COc1cc2c(cc1-c1c(C)noc1C)ncc1[nH]c(=O)n([C@H](C)c3ccccn3)c12 [I-BET 151 dihydrochloride] , please.
1 (active)

Observed phenotypically active on WPMY1-GM130-SQSTM1 for `O=C(O)[C@H]1O[C@@H](Oc2cc3oc(-c4ccccc4)cc(=O)c3c(O)c2O)[C@H](O)[C@@H](O)[C@@H]1O` , please.
1 (active)

Observed phenotypically active on WPMY1-GM130-SQSTM1 for `C[C@H]1[C@H](C)CC[C@]2(C(=O)O)CC[C@]3(C)C(=CC[C@@H]4[C@@]5(C)CC[C@H](O)C(C)(C)[C@@H]5CC[C@]43C)[C@H]12` , please.
0 (inactive)

###

# System: WPMY1-TP53BP1-CLTA
# MEASUREMENT PROTOCOL: phenotypically active (imaging signature differs from DMSO and reproducible) at any of 0.3-9 uM (binary (1 = active, 0 = inactive)); higher = active
# EXPERIMENTAL SETUP: treatment time: 24 h
Where a name gives a salt, the structure may show the parent alone.
Record form. Attribute: phenotypically active. Fill in for each entry.
Answer as a number with no unit attached.

Please give the measured phenotypically active for this molecule: `CC[C@@H]1C(=O)N(C)c2cnc(Nc3ccc(C(=O)NC4CCN(C)CC4)cc3OC)nc2N1C1CCCC1`
1

Please give the measured phenotypically active for this molecule: CCCc1cc2c(N3CCN(C4=NCC(C)(C)S4)CC3)ncnc2s1 [MI 2 dihydrochloride]
0

Please give the measured phenotypically active for this molecule: `CN(C)C1CCN(C(=O)c2ccc(NC(=O)Nc3ccc(-c4nc(N5CCOCC5)nc(N5CCOCC5)n4)cc3)cc2)CC1`
1

Please give the measured phenotypically active for this molecule: `Brc1c(Br)c(Br)c2[nH]nnc2c1Br`
0

Please give the measured phenotypically active for this molecule: `Cc1ccc(S(=O)(=O)n2c(N)nc3ccccc32)cc1`
0

Please give the measured phenotypically active for this molecule: O=C1C=C(O)C(=O)c2ccccc21 [2-Hydroxy-[1,4]naphthoquinone]
0

Please give the measured phenotypically active for this molecule: COc1cc2c(cc1-c1c(C)noc1C)ncc1[nH]c(=O)n([C@H](C)c3ccccn3)c12 [I-BET 151 dihydrochloride]
1

Please give the measured phenotypically active for this molecule: CC1=CC(=O)CC(C)(C)C1(O)/C=C/C(C)=C\C(=O)O (mixture of isomers) [(+/-)-2-cis-4-trans-Abscisic acid]
0

Please give the measured phenotypically active for this molecule: `O=C(O)/C(Cc1ccccc1[N+](=O)[O-])=N\Nc1nc(-c2ccc(Cl)c(Cl)c2)cs1`
1
